What IC50 was measured for each of the following?
- Tested on: HCC1428
- Experiment summary: CTG assay for proliferation inhibition of cell lines
- Type: cell-based
- Assay context: HCC1428, 7 days, CellTiter Glo
// note: answer is a bare numeric in µM

Input line: Would you kindly share the measured IC50 for COCC(C)S(=O)(=O)N1CC=C(c2cc(S(=O)(=O)NC3(C#N)CC3)cc3c(-c4nnc(C(F)F)s4)nn(C)c23)CC1 (stereo not drawn) [Compound 23] ?
Output line: 0.466

Input line: Would you kindly share the measured IC50 for CC(C)S(=O)(=O)N1CC=C(c2cc(S(=O)(=O)NC3(C#N)CC3)cc3c(-c4nnc(C(F)(F)F)s4)nn(CC(F)(F)F)c23)CC1 [Compound 58] ?
Output line: 0.201

Input line: Would you kindly share the measured IC50 for CN(C)S(=O)(=O)N1CC=C(c2cc(S(=O)(=O)NC3(C#N)CC3)cc3c(-c4nnc(C(F)F)s4)nn(C)c23)CC1 [Compound 32] ?
Output line: 0.232

Input line: Would you kindly share the measured IC50 for CC(C)S(=O)(=O)c1ccc(-c2cc(S(=O)(=O)NC3(C#N)CC3)cc3c(-c4nnc(C(F)F)s4)nn(C)c23)cc1 [Compound 9] ?
Output line: 1.17

Input line: Would you kindly share the measured IC50 for CC(C)S(=O)(=O)N1CCC(c2cc(S(=O)(=O)NC3(C#N)CC3)cc3c(-c4nnc(C(F)(F)F)s4)nn(C)c23)=C(C#N)C1 [Compound 64] ?
Output line: 0.0882

Input line: Would you kindly share the measured IC50 for CC(C)S(=O)(=O)N1CCN(c2cc(S(=O)(=O)NC3(C#N)CC3)cc3c(-c4nnc(C(F)(F)F)s4)nn(C)c23)CC1 [Compound 35] ?
Output line: 0.698

###

What pIC50 was measured for each of the following?
- Test target: PARG (389-976) (Homo sapiens (Human))
- Sequence (Q86W56 389-976): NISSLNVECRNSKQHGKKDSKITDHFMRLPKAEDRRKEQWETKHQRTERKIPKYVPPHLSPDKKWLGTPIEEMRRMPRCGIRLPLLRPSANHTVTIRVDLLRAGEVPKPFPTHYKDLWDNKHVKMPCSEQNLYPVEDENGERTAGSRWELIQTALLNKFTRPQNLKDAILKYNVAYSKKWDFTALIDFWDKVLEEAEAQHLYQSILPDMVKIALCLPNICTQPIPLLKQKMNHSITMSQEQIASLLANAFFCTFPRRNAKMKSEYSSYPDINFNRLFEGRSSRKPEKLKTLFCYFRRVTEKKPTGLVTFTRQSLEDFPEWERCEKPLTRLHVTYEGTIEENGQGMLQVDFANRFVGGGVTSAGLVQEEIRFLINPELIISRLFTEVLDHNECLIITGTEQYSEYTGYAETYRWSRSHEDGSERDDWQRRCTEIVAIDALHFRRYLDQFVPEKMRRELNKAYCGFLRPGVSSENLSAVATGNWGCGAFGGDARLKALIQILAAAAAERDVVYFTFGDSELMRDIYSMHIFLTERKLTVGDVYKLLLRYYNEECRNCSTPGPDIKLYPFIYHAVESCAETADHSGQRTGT
- Experiment summary: PARG enzyme inhibition assay (TR-FRET)
- Format: biochemical
- Assay context: class symbol; Bio PARylated His-TEV-PARP1 substrate, TR-FRET
pIC50: −log10 of the molar value.

Input line: Would you kindly share the measured pIC50 for `CC(C)S(=O)(=O)N1CCC=C(c2cc(S(=O)(=O)NC3(C#N)CC3)cc3c(-c4nnc(C(F)F)s4)nn(C)c23)C1` ?
Output line: 8.00 to 9.00

Input line: Would you kindly share the measured pIC50 for `CN(C)S(=O)(=O)N1CC=C(c2cc(S(=O)(=O)NC3(C#N)CC3)cc3c(-c4nnc(C(F)F)s4)nn(C)c23)CC1` ?
Output line: 8.00 to 9.00

Input line: Would you kindly share the measured pIC50 for `Cn1nc(-c2nnc(C(F)F)s2)c2cc(S(=O)(=O)NC3(C#N)CC3)cc(C3=CCN(S(=O)(=O)C4CCNCC4)CC3)c21` ?
Output line: > 9.00

Input line: Would you kindly share the measured pIC50 for `CC(C)S(=O)(=O)N1CC=C(c2cc(S(=O)(=O)NC3(C#N)CC3)cc3c(-c4nnc(C(F)(F)F)s4)nn(CC4COC4)c23)CC1` ?
Output line: 8.00 to 9.00

Input line: Would you kindly share the measured pIC50 for COCC(C)S(=O)(=O)N1CC=C(c2cc(S(=O)(=O)NC3(C#N)CC3)cc3c(-c4nnc(C(F)F)s4)nn(C)c23)CC1 (stereo not drawn) ?
Output line: > 9.00

Input line: Would you kindly share the measured pIC50 for CC(C)[S+]([O-])c1ccc(-c2cc(S(=O)(=O)NC3(C#N)CC3)cc3c(-c4nnc(C(F)(F)F)s4)nn(C)c23)nc1 (stereo not drawn) ?
Output line: 7.00 to 8.00
